Biological target: MDR1 (P-glycoprotein, ABCB1) (Homo sapiens, UniProt P08183)
Sequence (P08183 whole entry): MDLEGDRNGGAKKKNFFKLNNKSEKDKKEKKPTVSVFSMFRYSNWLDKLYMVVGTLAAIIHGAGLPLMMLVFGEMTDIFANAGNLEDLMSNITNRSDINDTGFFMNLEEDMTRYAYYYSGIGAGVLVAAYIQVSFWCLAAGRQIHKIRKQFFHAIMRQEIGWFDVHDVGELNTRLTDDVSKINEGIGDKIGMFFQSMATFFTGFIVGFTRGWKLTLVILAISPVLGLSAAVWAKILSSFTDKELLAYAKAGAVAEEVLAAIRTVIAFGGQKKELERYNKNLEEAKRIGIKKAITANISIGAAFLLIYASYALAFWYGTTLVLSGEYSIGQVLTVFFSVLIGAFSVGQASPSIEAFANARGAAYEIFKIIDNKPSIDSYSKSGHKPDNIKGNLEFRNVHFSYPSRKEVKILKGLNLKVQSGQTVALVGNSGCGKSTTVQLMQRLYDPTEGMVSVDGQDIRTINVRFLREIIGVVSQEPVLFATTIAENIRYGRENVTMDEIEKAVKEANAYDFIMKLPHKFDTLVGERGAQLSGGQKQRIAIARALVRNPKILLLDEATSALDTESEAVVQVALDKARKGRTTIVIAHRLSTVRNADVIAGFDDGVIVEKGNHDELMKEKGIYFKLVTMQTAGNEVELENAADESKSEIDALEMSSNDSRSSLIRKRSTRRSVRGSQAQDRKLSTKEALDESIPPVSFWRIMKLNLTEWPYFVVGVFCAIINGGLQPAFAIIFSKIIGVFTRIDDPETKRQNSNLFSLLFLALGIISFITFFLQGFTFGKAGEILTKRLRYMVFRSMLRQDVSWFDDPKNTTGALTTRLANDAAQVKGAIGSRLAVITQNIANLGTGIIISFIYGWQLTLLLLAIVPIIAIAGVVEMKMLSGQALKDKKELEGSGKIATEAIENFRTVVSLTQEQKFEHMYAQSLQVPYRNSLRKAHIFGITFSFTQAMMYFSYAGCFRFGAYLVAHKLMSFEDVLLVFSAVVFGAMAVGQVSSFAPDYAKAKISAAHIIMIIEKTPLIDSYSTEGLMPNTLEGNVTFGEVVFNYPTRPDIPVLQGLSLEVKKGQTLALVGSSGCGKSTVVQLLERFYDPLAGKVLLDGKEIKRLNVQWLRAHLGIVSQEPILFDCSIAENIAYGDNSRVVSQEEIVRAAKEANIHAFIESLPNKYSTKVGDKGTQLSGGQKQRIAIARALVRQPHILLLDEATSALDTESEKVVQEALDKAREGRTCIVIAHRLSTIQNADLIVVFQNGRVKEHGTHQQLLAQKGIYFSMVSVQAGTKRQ
Experiment: TP_TRANSPORTER: increase in Calcein-AM intracellular accumulation (Calcein-AM: ? uM, Buspirone: 100 uM) in MDR1-expressing MDCKII cells
Assay type: functional, cell-based, MDCK-II
Details: dog, probe Calcein-AM
observable: inhibition at 100 µM (%)

• O=C1CC2(CCCC2)CC(=O)N1CCCCN1CCN(c2ncccn2)CC1 = 24.1

###

Molecular target: MDR1 (P-glycoprotein, ABCB1) (Homo sapiens)
Assay: TP_TRANSPORTER: increase in Calcein-AM intracellular accumulation (Calcein-AM: ? uM, Amitriptyline: 100 uM) in MDR1-expressing MDCKII cells
Format: functional, cell-based, MDCK-II
Conditions: dog, probe Calcein-AM
observable: inhibition at 100 µM (%)

- CN(C)CCC=C1c2ccccc2CCc2ccccc21: 25.5

Where these numbers come from: ChEMBL document CHEMBL2074178
